Consider the following binders; for each one, report its pIC50.
- assay_system: T1, 5-Helix (HIV-1 group M subtype B, HXB2 (gp41 …, stabilised))
- T1 construct: also called designed protein based on HIV-1 gp41
- method_description: ELISA
- assay_setup: both partners purified
# reply with the number alone; pIC50 is -log10 of concentration in mol/L

In: Consider the binder 25A10 scFv, purified monovalent (scFv, V domains shown) VH: QVQLVQSGAEVRKPGASVKVSCKASGDTFSSYAISWVRQAPGQGLEWMGGIIPIFGTANYAQAFQGRVTITANESTSTAYMELSSLRSEDTAIYYCARDNPTLLGSDYWGAGTLVTVSS VL: DIQMTQSPSTLSASIGDRVTITCRASESISHNLAWYQQKPGKAPKLLISNASRLASGAPSRFSGSGSGTDFTLTISSLQPDDFATYYCQQYSNYPLTFGGGTKLEIK and give its measured pIC50.
Out: 8.27

In: What measured pIC50 goes with D5 scFv, purified monovalent (scFv, V domains shown) VH: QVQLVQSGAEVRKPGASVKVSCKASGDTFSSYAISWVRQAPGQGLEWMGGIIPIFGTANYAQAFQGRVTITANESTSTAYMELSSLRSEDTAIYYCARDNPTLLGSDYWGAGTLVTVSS VL: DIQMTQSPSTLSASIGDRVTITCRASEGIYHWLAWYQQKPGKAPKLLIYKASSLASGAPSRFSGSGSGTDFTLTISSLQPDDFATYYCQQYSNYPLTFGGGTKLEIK ?
Out: 8.14

In: Data request, read-out pIC50, for 25C10 scFv, purified monovalent (scFv, V domains shown) VH: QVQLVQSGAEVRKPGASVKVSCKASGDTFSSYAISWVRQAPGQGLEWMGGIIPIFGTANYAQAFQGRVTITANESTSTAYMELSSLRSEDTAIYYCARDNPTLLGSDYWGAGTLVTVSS VL: DIQMTQSPSTLSASIGDRVTITCRASENIYGNLAWYQQKPGKAPKLLISRASRLASGAPSRFSGSGSGTDFTLTISSLQPDDFATYYCQQRYTYPLTFGGGTKLEIK
Out: 7.25
